Values were extracted from PubChem BioAssay (NCI).

# Tested on: OVCAR-4 ovarian
# assay text: NCI tumour cell line growth inhibition, 48 h
parameter: TGI

CCCCCCCCCCCCCCCCOP(=O)([O-])OCC[N+](C)(C)C1CC(C)(C)N(O)C(C)(C)C1: > 100 µM

Below are 4 molecules. Give each one its TGI.
1. COc1cc2c3c(n(CCCN)c(=O)c2cc1OC)-c1ccc(N)cc1C3=O
2. O=C1Nc2ccc(Cl)cc2/C1=N/c1nc(-c2ccc(Cl)cc2)cs1
3. CCOC(=O)C#Cc1c(C(=O)OCC)nnn1[C@@H]1O[C@H](COC)[C@@H](OC)[C@H]1OC
4. O=C(CCN1CCOCC1)Nc1ccc(Cn2nnc3c2C(=O)c2nnn(Cc4ccc(NC(=O)CCN5CCOCC5)cc4)c2C3=O)cc1

Output:
["11.6 µM", "> 100 µM", "4.43 µM", "3.44 µM"]

###

# System: T-47D breast
# assay text: NCI tumour cell line growth inhibition, 48 h
parameter: GI50

Hello, I would appreciate it if you could give GI50 for each entry below.
1. O=C(O)c1cn(C2CC2)c2cc(N3CCN(C(=O)N(c4ccccc4)c4nc(-c5ccccc5)cs4)CC3)c(F)cc2c1=O
2. CNCc1cccc2c1OCCOCCOCCNS(=O)(=O)c1ccc(cc1)-c1cnc(N)c(n1)C(=O)N2
3. COc1cc(/C=C/C(=O)c2nc3cc(F)ccc3nc2C)cc(OC)c1OC
4. O=c1c(Oc2ccc(F)cc2F)cc2cnc(NC3CCOCC3)nc2n1C1CC1
5. CCOC(=O)C#Cc1c(C(=O)OCC)nnn1[C@@H]1O[C@H](COC)[C@@H](OC)[C@H]1OC

Output:
2300 nM
2050 nM
4910 nM
19300 nM
2470 nM

###

# Tested on: RPMI-8226 leukemia
# assay text: NCI tumour cell line growth inhibition, 48 h
parameter: TGI

Would you please look over these solved cases?
NS(=O)(=O)c1c(O)c2ccccc2oc1=O: > 100 µM
CCC12C=C(C(=O)OC)N3c4ccccc4C4CCN(CCC1)C2C43 (stereo not given): > 100 µM
COC(=O)C(=O)C(C(=O)C(=O)Nc1cccc(OC)c1)c1nc2ccc(Cl)cc2[nH]c1=O (stereo not given): > 100 µM
COc1ccc(/C=C2\C[C@H]3[C@@H]4CC=C5C[C@@H](O)CC[C@]5(C)[C@H]4CC[C@]3(C)\C2=N\O)cc1: 21.9 µM
C(=NC12CC3CC(CC(C3)C1)C2)C1CCCCC1: > 100 µM
COc1ccc(-n2c(=O)c3ccccc3n(Cc3ccc(C(=O)NO)cc3)c2=O)cc1: 12.6 µM
Cc1ccccc1NC(=O)CC(=O)NNCC(=O)Nc1nnc(-c2ccccc2)s1: 75.1 µM
CS(=O)(=O)CCC1CCC(=O)O1 (stereo not given): > 100 µM

Provide each entry's TGI from the list below.
1. C/C(=C\c1csc(C)n1)[C@@H]1C[C@@H]2O[C@]2(C)CCC[C@H](C)[C@H](O)[C@@H](C)C(=O)C(C)(C)[C@@H](O)CC(=O)N1
2. CN(C)[C@@H]1C(=O)C(C(=O)NCc2nc3[nH]cnc(=S)c3[nH]2)=C(O)[C@@]2(O)C(=O)C3=C(O)c4c(O)cccc4[C@@](C)(O)[C@H]3C[C@@H]12

Output:
1: < 1e-05 µM; 2: > 100 µM

###

# System: OVCAR-3 ovarian
# assay text: NCI tumour cell line growth inhibition, 48 h; in the data active = GI50 below about 0.43 µM; inactive = the rest
In this exercise, the only acceptable responses are 1 (yes) = active, 0 (no) = inactive

Input: I would be grateful if you could indicate the recorded call for `COc1cc(/C=C/C(=O)c2nc3cc(F)ccc3nc2C)cc(OC)c1OC` .
Output: 0 (no)

Input: Query: recorded result category for `COc1ccc([C@@H]2[C@@H](Oc3ccccc3)C(=O)N2c2cc(OC)c(OC)c(OC)c2)cc1F` in this test
Output: 1 (yes)

Input: Which result was noted for this compound in the test: `CNCc1cccc2c1OCCOCCOCCNS(=O)(=O)c1ccc(cc1)-c1cnc(N)c(n1)C(=O)N2`
Output: 0 (no)

Input: What did the test return for `COc1cc2c(cc1OCCN1CCN(CCN3C(=O)c4cccc5cccc(c45)C3=O)CC1)N=C[C@@H]1CCCN1C2=O` ?
Output: 0 (no)

Input: Hey, what did the test say about `CCCCCCCCCCN=C(N)c1ccc(N2CCN(c3ccc(C(N)=NCCCCCCCCCC)cc3)CC2)cc1` ?
Output: 0 (no)

###

# Tested on: RXF 393 renal
# assay text: NCI tumour cell line growth inhibition, 48 h
Give TGI for every item shown.

C#CCCCCCC(=O)N[C@H]1C=C[C@@H]2/C=C(C)/C=C/[C@@H](C)[C@H]([C@H](C)[C@H](O)[C@@H](C)NC(C)=O)OC(=O)/C=C/C=C(C)\C=C\[C@]2(C)C1: 2.48 µM
CN(C)CCCC1(c2ccc(F)cc2)OCc2cc(-c3csc4ccccc34)ccc21 (centres undefined): 2.95 µM
CC1(C)CC(=O)C(C(=O)Nc2cccs2)=C(O)C1: > 100 µM
C=CCN(c1cc(O)c2c(c(C)cn2S(=O)(=O)c2ccccc2)c1[N+](=O)[O-])S(C)(=O)=O: > 100 µM
CC(C)(C)c1ccc(OCCOCCOc2ccc(C(C)(C)C)cc2S(N)(=O)=O)c(S(N)(=O)=O)c1: > 100 µM

I need TGI for every entry listed below, if you could help.
1. CC(=O)Nc1ccc2c(c1)C(=O)c1ccccc1-2
2. CC(C)C(=O)Cc1ccc2ccccc2n1

Output:
1. > 100 µM
2. > 100 µM

Okay, here is my list. What is TGI for each of these?
1. N#CC1=C(N)Oc2c(ccc3ccccc23)C1c1cc2ccccc2n2nnnc12 (centres undefined)
2. O=C(O)c1cn(C2CC2)c2cc(N3CCN(C(=O)N(c4ccccc4)c4nc(-c5ccccc5)cs4)CC3)c(F)cc2c1=O

Output:
6.59 µM
1.49 µM

###

# Tested on: OVCAR-4 ovarian
# assay text: NCI tumour cell line growth inhibition, 48 h
parameter: GI50

O=C1c2ccccc2-c2c1c1c(O)cccc1n2Cc1ccccc1: 7.14 µM

For every item in the list below, what is its measured GI50?
1. C#CCCCCCC(=O)N[C@H]1C=C[C@@H]2/C=C(C)/C=C/[C@@H](C)[C@H]([C@H](C)[C@H](O)[C@@H](C)NC(C)=O)OC(=O)/C=C/C=C(C)\C=C\[C@]2(C)C1
2. COc1ccc([C@@H]2[C@@H](Oc3ccccc3)C(=O)N2c2cc(OC)c(OC)c(OC)c2)cc1F

Output:
3.06 µM
2.57 µM

Working through the 4 molecules below one at a time, give GI50 for each.
1. FC(F)(F)c1cccc(CNC2CCN(CCc3ccccc3)CC2)c1
2. O=C(/C=C(\[O-])c1ccccc1)CCCCCCC(=O)/C=C(\[O-])c1ccccc1.O=C(/C=C(\[O-])c1ccccc1)CCCCCCC(=O)/C=C(\[O-])c1ccccc1.O=C(/C=C(\[O-])c1ccccc1)CCCCCCC(=O)/C=C(\[O-])c1ccccc1.[Y+3].[Y+3]
3. COC(=O)C(C)NP(=O)(OCc1cccc(Cn2cnc3c(N)ncnc32)c1)Oc1ccccc1 (configuration not stated)
4. CC(=O)O[C@H]1C[C@@H]2[C@@]3(C)CC[C@H]4C[C@@]4(C)[C@@H]3CC[C@@]2(C)C2=CCC3=C(COC3=O)[C@]21C

Output:
1. 23.1 µM
2. 14.2 µM
3. > 100 µM
4. 25 µM

###

# Tested on: HCC-2998 colon
# assay text: NCI tumour cell line growth inhibition, 48 h; in the data active = GI50 below about 0.43 µM; inactive = the rest
Reply using exactly one outcome from TRUE = active, FALSE = inactive

CCCCCCCCCCN=C(N)c1ccc(N2CCN(c3ccc(C(N)=NCCCCCCCCCC)cc3)CC2)cc1: FALSE
COc1cc2c(Oc3ccc(-c4cnc(Nc5ccc(F)cc5)n(C)c4=O)cc3F)ccnc2cc1OCCCN1CCOCC1: FALSE
COc1ccccc1CNCCCN1C(=O)c2ccc3c4c(ccc(c24)C1=O)C(=O)N(CCCNCc1ccccc1OC)C3=O: TRUE

Input: // param item: O=C1C[C@@H]2OCC=C3C[N+]4([O-])CC[C@]56c7ccccc7N1[C@H]5[C@H]2[C@H]3C[C@@H]64 (some centres undefined) ; yields the recorded call
Output: FALSE

###

Exercise: state measured TGI for each of the molecules provided.
# Tested on: NCI-H226 lung
# assay text: NCI tumour cell line growth inhibition, 48 h

Please review the entries below; each comes with its answer.
Nc1ccc2c(=S)c3ccccc3[nH]c2c1: > 100 µM
C=C(C)c1nc(Oc2ccccc2)nc(Oc2ccccc2)n1: 36.7 µM
O=C(CCN1CCOCC1)Nc1ccc(Cn2nnc3c2C(=O)c2nnn(Cc4ccc(NC(=O)CCN5CCOCC5)cc4)c2C3=O)cc1: > 100 µM
O=[N+]([O-])c1ccc2c3c1[C@@H]1O[C@@H]1c1cccc(c1-3)[C@@H]1O[C@H]21: > 80.9 µM
COc1cc(/C=C/c2cc(/C=C/c3ccc(O)c(OC)c3)n(C(=O)Nc3ccc(C)cc3)n2)ccc1O: 4.82 µM

Give one value of TGI per listed molecule.
1. O=C1NC(=O)N(S(=O)(=O)c2cc(C(=O)Nc3ccc(Cl)cc3)c(Cl)cc2S)S(=O)(=O)N1
2. COc1ccc([C@@H]2[C@@H](Oc3ccccc3)C(=O)N2c2cc(OC)c(OC)c(OC)c2)cc1F
3. N#CCC(=O)N/N=C\C(O)C(O)C(O)C(O)CO (centres undefined)
4. O=[N+]([O-])c1ccc(/C=C/c2ccc(/C=C/c3ccc([N+](=O)[O-])cc3[N+](=O)[O-])cc2)c([N+](=O)[O-])c1

Output:
56.1 µM
> 100 µM
> 100 µM
> 100 µM
